Values compiled from paper PMC9482650.

- TEST TARGET: T1, DFNB31_1, Q9P202
- T1 sequence (Q9P202 135-233, limits assumed, looked up): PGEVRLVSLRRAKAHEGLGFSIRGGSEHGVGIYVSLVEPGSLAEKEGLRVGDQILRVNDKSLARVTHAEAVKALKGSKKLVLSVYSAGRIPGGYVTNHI
- ASSAY COMMENT: holdup assay
- Design: key: below the threshold = too weak to quantify, mostly under pKd 3.1 to 4
- EXPERIMENTAL PARAMETERS: plain residues with an end cap or a label only (N-terminal biotin on a linker: ado-ado)
MEASUREMENT KIND: pKd
Please give only the number in your answer, with no unit.

1. ETQVTAETVI [TMEM225B, P0DP42]	4.59
2. MLSKQSESAI [FLVCR1, Q9Y5Y0]	4.86

State, in one line, measured pKd of QGPVETESVV [SLC45A4, Q5BKX6]
3.66
